Hey, just so you know, these numbers are from ChEMBL document CHEMBL1155295.

# TARGET: 3-phosphoinositide-dependent protein kinase 1 (Homo sapiens)
# Sequence (O15530 whole entry): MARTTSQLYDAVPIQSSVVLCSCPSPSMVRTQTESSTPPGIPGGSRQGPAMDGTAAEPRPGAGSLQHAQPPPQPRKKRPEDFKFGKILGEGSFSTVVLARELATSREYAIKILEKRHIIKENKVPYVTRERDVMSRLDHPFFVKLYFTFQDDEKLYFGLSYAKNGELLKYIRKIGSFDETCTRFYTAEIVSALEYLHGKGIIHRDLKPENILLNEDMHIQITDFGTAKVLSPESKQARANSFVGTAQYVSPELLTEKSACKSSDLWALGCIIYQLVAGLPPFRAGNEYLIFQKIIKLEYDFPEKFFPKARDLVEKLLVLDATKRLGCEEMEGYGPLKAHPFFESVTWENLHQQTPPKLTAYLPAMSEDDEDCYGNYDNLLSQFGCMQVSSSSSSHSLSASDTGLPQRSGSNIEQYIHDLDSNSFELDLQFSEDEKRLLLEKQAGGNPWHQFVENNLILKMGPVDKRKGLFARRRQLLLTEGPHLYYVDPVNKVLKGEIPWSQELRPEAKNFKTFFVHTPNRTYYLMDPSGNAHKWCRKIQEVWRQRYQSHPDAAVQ
pIC50: −log10 of the molar value.
MEASURED_ATTRIBUTE: pIC50

INSERT INTO measurements (mol_smiles, number) VALUES
  ('COc1cc2ncc3c(N)nc(-n4ccnc4)cc3c2cc1OC', 7.00);

1 = COc1cc2ncc3c(N)nc(-c4cncc(Br)c4)cc3c2cc1OC
2 = COc1cc2c(cc1OCCCN1CCCCC1)ncc1c(N)nc(-c3cccnc3)cc12
3 = COc1cc2ncc3c(N)nc(-c4cncc(Nc5ccccc5F)c4)cc3c2cc1OC
Ask: Put these in order: smallest pIC50 first, largest last. Form entry: labels listed in requested order.
Reply: 2, 1, 3
(2: 6.84, 1: 7.19, 3: 7.52)
